Each record here notes measured IC50 Ratio Aur B/Aur A.
TARGET_OF_ASSAY: Aurora B (Homo sapiens (Human))
Sequence (Q96GD4 whole entry): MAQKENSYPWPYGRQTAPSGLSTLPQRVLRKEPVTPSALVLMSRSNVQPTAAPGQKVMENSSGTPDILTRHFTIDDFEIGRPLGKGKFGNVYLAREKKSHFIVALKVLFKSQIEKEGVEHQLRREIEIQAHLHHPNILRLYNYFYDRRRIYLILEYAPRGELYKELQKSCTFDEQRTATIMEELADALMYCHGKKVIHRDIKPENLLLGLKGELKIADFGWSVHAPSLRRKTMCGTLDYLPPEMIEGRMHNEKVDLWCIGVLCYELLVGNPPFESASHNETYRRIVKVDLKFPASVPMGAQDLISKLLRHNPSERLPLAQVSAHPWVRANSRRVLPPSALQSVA
PROTOCOL_TEXT: Aurora B kinase assay (mobility shift assay)
Format: biochemical
ASSAY_CONDITIONS: ratio of Aurora B IC50 to Aurora A IC50
Simply state the number, no unit and no words.

Solved cases (5 shown):
COMPOUND	VALUE_MEASURED
Cc1cc(Nc2nc(C[C@@]3(C(=O)O)CCN(Cc4cccc(Cl)c4F)[C@H](C)C3)c(F)c(Cl)c2F)n[nH]1 [Example 74]	3358
Cc1cc(Nc2ccc(F)c(C[C@@]3(C(=O)O)CCN(Cc4cccc(C)c4F)[C@H](C)C3)n2)n[nH]1 [Example 16]	1812
Cc1cc(Nc2ccc(F)c(C[C@@]3(C(=O)O)CCN(Cc4c(Cl)cccc4Cl)[C@H](C)C3)n2)n[nH]1 [Example 17]	2974
Cc1cc(Nc2nc(C[C@@]3(C(=O)O)CCN(Cc4cccc(Cl)c4F)[C@H](C)C3)c(F)cc2C)[nH]n1 [Example 35]	2403
Cc1cc(Nc2cc(C)c(F)c(C[C@@]3(C(=O)O)CCN(Cc4c(F)ccc(Cl)c4F)[C@H](C)C3)n2)n[nH]1 [Example 50]	845

Req: What value of IC50 Ratio Aur B/Aur A has been recorded for this entry: Cc1cc(Nc2cccc(C[C@@]3(C(=O)O)CCN(Cc4cccc(Cl)c4F)[C@H](C)C3)n2)n[nH]1 [Example 29]
Resp: 586

Req: What value of IC50 Ratio Aur B/Aur A has been recorded for this entry: Cc1cc(Nc2ccc(F)c(C[C@@]3(C(=O)O)CCN([C@@H](C)c4cccc(Cl)c4F)[C@H](C)C3)n2)n[nH]1 [Example 41]
Resp: 3682
